# system-name: YkoE (Bacillus subtilis, UniProt O34738, Y46A)
# Construct: isolated S component without YkoC/YkoD; N-terminal His6 tag cut by TEV; E. coli Lemo21; n-decyl-beta-D-maltopyranoside; four N-terminal residues not seen in crystal
# assay-comment: intrinsic Trp fluorescence quenching titration
# Format: binding
measured-metric: pKd
Scale: pKd equals -log10([C]), with [C] in mol/L.

Read the entry Cc1ncc(C[n+]2csc(CCO)c2C)c(N)n1 and write its reported pKd.
7.99

----------
# system-name: YkoE (Bacillus subtilis)
# Construct: isolated S component without YkoC/YkoD; N-terminal His6 tag cut by TEV; E. coli Lemo21; n-decyl-beta-D-maltopyranoside; four N-terminal residues not seen in crystal
# assay-comment: intrinsic Trp fluorescence quenching titration
pKd: −log10 of the molar value.
measured-metric: pKd

Read the entry Cc1ncc(C[n+]2csc(CCO)c2C)c(N)n1 and write its reported pKd.
~8.35

----------
# system-name: YkoE (Bacillus subtilis, UniProt O34738, Q95A)
# Construct: isolated S component without YkoC/YkoD; N-terminal His6 tag cut by TEV; E. coli Lemo21; n-decyl-beta-D-maltopyranoside; four N-terminal residues not seen in crystal
# Sequence (O34738 1-199 Q95A limits assumed): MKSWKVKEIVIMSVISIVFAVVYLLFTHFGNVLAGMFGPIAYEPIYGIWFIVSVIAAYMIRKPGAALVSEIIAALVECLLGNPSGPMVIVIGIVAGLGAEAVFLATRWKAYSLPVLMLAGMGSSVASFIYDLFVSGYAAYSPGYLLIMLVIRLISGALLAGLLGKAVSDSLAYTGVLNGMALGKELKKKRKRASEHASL
# assay-comment: intrinsic Trp fluorescence quenching titration
measured-metric: Kd (nM)
Reply with just the number (in nM).

Read the entry Cc1ncc(C[n+]2csc(CCO)c2C)c(N)n1 [thiamine] and write its reported Kd.
26.9

----------
# system-name: YkoE (Bacillus subtilis, UniProt O34738, E77A)
# Construct: isolated S component without YkoC/YkoD; N-terminal His6 tag cut by TEV; E. coli Lemo21; n-decyl-beta-D-maltopyranoside; four N-terminal residues not seen in crystal
# assay-comment: intrinsic Trp fluorescence quenching titration
measured-metric: pKd
Scale: pKd equals -log10([C]), with [C] in mol/L.

Read the entry Cc1ncc(C[n+]2csc(CCO)c2C)c(N)n1 [thiamine] and write its reported pKd.
8.03

----------
# system-name: YkoE (Bacillus subtilis, UniProt O34738, D131A)
# Construct: isolated S component without YkoC/YkoD; N-terminal His6 tag cut by TEV; E. coli Lemo21; n-decyl-beta-D-maltopyranoside; four N-terminal residues not seen in crystal
# Sequence (O34738 1-199 D131A limits assumed): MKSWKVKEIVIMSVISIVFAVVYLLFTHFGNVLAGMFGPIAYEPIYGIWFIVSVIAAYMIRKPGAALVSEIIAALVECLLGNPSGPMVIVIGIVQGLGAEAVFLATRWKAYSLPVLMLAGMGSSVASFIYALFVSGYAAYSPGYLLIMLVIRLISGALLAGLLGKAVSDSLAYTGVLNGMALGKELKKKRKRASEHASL
# assay-comment: intrinsic Trp fluorescence quenching titration
measured-metric: pKd
Scale: pKd equals -log10([C]), with [C] in mol/L.

Read the entry Cc1ncc(C[n+]2csc(CCO)c2C)c(N)n1 [thiamine] and write its reported pKd.
8.03
